- Tested on: FB
- Assay Remarks: Euclidean distance of Cell Painting phenotypic profile (signed KS, 77 features) to DMSO centroid (dimensionless distance); 5 or 10 uM (library dependent); higher = stronger phenotypic change vs DMSO (phenoactivity)
- Condition Label: 48 h
Entries and their Euclidean distance

>>> observed_result("O=c1n(CCCN2CCN(c3cccc(Cl)c3)CC2)nc2ccccn12 [Trazodone]")
0.908
>>> observed_result("C[C@@H]1CCC[C@H](C)N1NC(=O)c1ccc(Cl)c(S(N)(=O)=O)c1 [Clopamide]")
0.969
>>> observed_result("N#C/C(=C\\c1ccc(O)c(O)c1)C(=O)NCc1ccccc1 [AG-490 (Tyrphostin B42)]")
1.34
>>> observed_result("CCCCCCc1ccc(O)cc1O [Hexylresorcinol]")
0.936
>>> observed_result("OCCOc1ccc(/C(=C(/CCCl)c2ccccc2)c2ccccc2)cc1 [Ospemifene]")
0.945
>>> observed_result("CN1CCC(=C2c3ccccc3CCc3cccnc32)CC1 [Azatadine dimaleate]")
1.05

Moving on to another compound below.
Quickly give me recorded Euclidean distance for CC(C)(CCCCCC(O)CCCCCC(C)(C)C(=O)O)C(=O)O
0.851

Cited source for all entries: the supplement of paper PMC10127200
